# target or test system: Short transient receptor potential channel 4 (Mus musculus) (UniProt Q9QUQ5)
# assay details: calcium flux activators in TRPC4/5HT1a cells, counter-screen for TRPC4 activator project, cell-based, second counter screen, HEK293 TRPC4/5HT1a, Fluo-4 (AID 434977)
# measurement setup: Fluo-4 calcium flux, at 10 µM
Calls of active or inactive are those of the source.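 The calls were made as follows: active = calcium signal rise above buffer-control mean plus 5 SD in both duplicates, and also a hit in the primary screen; inactive = the rest.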
Outcome codes: True (active), False (inactive)

>  <compound>
COc1ccc(-c2cc(C(=O)NCC(c3ccccc3)N(C)C)c3ccccc3n2)cc1OC (stereo unspecified)

>  <target or test system>
Short transient receptor potential channel 4 (Mus musculus) (UniProt Q9QUQ5)

>  <group>
False

$$$$
>  <compound>
CCOC(=O)C1(CC2CC2)CCN(Cc2ccc(O)c(Cl)c2)CC1

>  <target or test system>
Short transient receptor potential channel 4 (Mus musculus) (UniProt Q9QUQ5)

>  <group>
False

$$$$
>  <compound>
COc1ccc(Cl)cc1NC(=O)CNCC(c1ccccc1)N(C)C (stereo unspecified)

>  <target or test system>
Short transient receptor potential channel 4 (Mus musculus) (UniProt Q9QUQ5)

>  <group>
False

$$$$
>  <compound>
CCc1nc(NCCc2ccccn2)c2nnn(Cc3ccccc3F)c2n1

>  <target or test system>
Short transient receptor potential channel 4 (Mus musculus) (UniProt Q9QUQ5)

>  <group>
True

$$$$
>  <compound>
O=C(NCc1ccccc1)C1=C[C@H](c2ccc3c(c2)OCO3)C[C@H](OCc2ccc(CO)cc2)O1

>  <target or test system>
Short transient receptor potential channel 4 (Mus musculus) (UniProt Q9QUQ5)

>  <group>
True

$$$$
>  <compound>
Cc1cccc(C(=O)NC(=S)NNC(=O)c2ccccc2Cl)c1

>  <target or test system>
Short transient receptor potential channel 4 (Mus musculus) (UniProt Q9QUQ5)

>  <group>
True

$$$$

* * *

# assay details: thallium flux activation in parental CHO cells, counter-screen for KCNQ1 potentiator project (AID 493006);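 as to activation: fluorescence ratio of max minus min over baseline after K+ and Tl+ depolarization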
# measurement setup: parental CHO-K1 cells, FluxOR thallium flux, at 10 µM; stronger effect = higher value
Calls of active or inactive are those of the source.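 The calls were made as follows: active = duplicate-averaged activation above buffer control mean plus 5 SD of those controls; inactive = the rest.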
observed property: activation

>  <molecule>
COc1ccc(C(=O)c2ccc(OC)c(N)c2)cc1N

>  <experimental value>
162% (active)

$$$$
>  <molecule>
O=C(Nc1ccccc1)C1=C(c2ccccc2)S(=O)(=O)CCS1(=O)=O

>  <experimental value>
inactive

$$$$
>  <molecule>
C=CCn1c(O)c(N=NC(=S)Nc2ccc(OC)c(Cl)c2)c2ccccc21

>  <experimental value>
191% (active)

$$$$
>  <molecule>
Oc1c(N=NC(=S)Nc2ccccc2F)c2ccccc2n1Cc1ccc(F)cc1

>  <experimental value>
inactive

$$$$
>  <molecule>
Cc1cc(/C=N/NC(=O)c2cccs2)c(C)n1-c1ccccc1

>  <experimental value>
inactive

$$$$
>  <molecule>
O=C(NC(=S)Nc1cccc(Cl)c1)c1cncc(Br)c1

>  <experimental value>
inactive

$$$$
>  <molecule>
Cc1cc(C)nc(CCNC(=O)c2cc(COc3ccccc3)on2)n1

>  <experimental value>
inactive

$$$$
>  <molecule>
CN(C(=O)CSc1ncnc2sc(-c3ccccc3)cc12)C1CCS(=O)(=O)C1 (stereo unspecified)

>  <experimental value>
529% (active)

$$$$
>  <molecule>
CC(C)c1ccc(C(=O)NC2=NCCS2)cc1

>  <experimental value>
inactive

$$$$
>  <molecule>
CC(=O)c1c(-c2ccccc2)c2cc([N+](=O)[O-])ccc2[nH]c1=O

>  <experimental value>
inactive

$$$$
>  <molecule>
Cc1ccc(-n2cnnn2)c2cccnc12

>  <experimental value>
inactive

$$$$

* * *

# assay details: thallium flux activation in parental CHO cells, counter-screen for KCNQ1 potentiator project (AID 493006);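 as to activation: fluorescence ratio of max minus min over baseline after K+ and Tl+ depolarization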
# measurement setup: parental CHO-K1 cells, FluxOR thallium flux, at 10 µM
Calls of active or inactive are those of the source.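 How the source made its calls: active means duplicate-averaged activation above buffer control mean plus 5 SD of those controls; inactive means the rest.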
Labels: active, inactive

>  <compound>
NNC(=O)c1sccc1OCc1ccc(Cl)cc1Cl

>  <group>
inactive

$$$$
>  <compound>
CC(C)(C)C1CCc2c(sc(NC(=O)C3CC=CCC3C(=O)O)c2C#N)C1 (stereo unspecified)

>  <group>
active

$$$$
>  <compound>
N#CC1(c2ccc(NC(=O)c3ccccc3F)cc2)CCCC1

>  <group>
inactive

$$$$
>  <compound>
COC(=O)c1ccc(C(=O)NC(=S)Nc2nc3c(s2)CCCC3)cc1

>  <group>
active

$$$$
>  <compound>
CCCCOC(=O)c1cc(C)nc2ccc(Br)cc12

>  <group>
active

$$$$
>  <compound>
O=C(C1CCCCC1)N1CCCC(c2nc3c(nnn3Cc3ccccc3)c(=O)[nH]2)C1 (stereo unspecified)

>  <group>
inactive

$$$$

* * *

# System: transient receptor potential cation channel C4 (TRPC4), mouse
# assay details: mouse TRPC4 modulation by TRPC6 hits, confirmation, selectivity assay for TRPC6 inhibitor project, cell-based, HEK293 TRPC4/mu-opioid, membrane potential dye (AID 2777);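 also: integrated kinetic ratio of fluorescence range over baseline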
# measurement setup: membrane potential fluorescence, at 10 µM
The list shows a part of the results. The source made the active and inactive calls.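 How the source made its calls: active means rise or fall in signal beyond 3 SD of buffer-only wells in both replicate plates, either sign; inactive means the rest.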
Classes used: y (active), n (inactive)

>  <compound>
Cn1c(=O)n(C)c2cc(C(=O)Nc3ccc4c(c3)OCO4)ccc21

>  <group>
y

$$$$
>  <compound>
CCOC(=O)N1CCN(C(=O)c2ccc3c(c2)N(Cc2ccc(C)cc2)CCS3)CC1

>  <group>
y

$$$$
>  <compound>
CCOC(=O)N1CCC(NC(=O)CN2C(=O)COc3ccc(C(C)(C)C)cc32)CC1

>  <group>
n

$$$$
>  <compound>
COc1ccccc1OCCNCC(O)COc1cccc2[nH]c3ccccc3c12 (centres undefined)

>  <group>
n

$$$$
>  <compound>
OCCC1CN(Cc2ccc3nsnc3c2)CCN1C1CCCC1 (centres undefined)

>  <group>
n

$$$$
>  <compound>
C=C(C)c1cccc(C(C)(C)NC(=O)NCCN(CC)CC)c1

>  <group>
y

$$$$
>  <compound>
Cc1cc(Nc2ccc(N3CCOCC3)cc2)c2cccc(C)c2n1

>  <group>
y

$$$$
>  <compound>
COc1ccccc1C1SCCN1C(=O)c1ccc([N+](=O)[O-])cc1 (centres undefined)

>  <group>
n

$$$$
>  <compound>
COc1ccc(CNC(=O)c2cc3c(=O)n4ccccc4nc3n(CC3CCCO3)c2=N)cc1 (centres undefined)

>  <group>
y

$$$$

* * *

# target or test system: Potassium voltage-gated channel subfamily KQT member 1 (Homo sapiens) (UniProt P51787)
# Sequence (P51787 whole entry, looked up): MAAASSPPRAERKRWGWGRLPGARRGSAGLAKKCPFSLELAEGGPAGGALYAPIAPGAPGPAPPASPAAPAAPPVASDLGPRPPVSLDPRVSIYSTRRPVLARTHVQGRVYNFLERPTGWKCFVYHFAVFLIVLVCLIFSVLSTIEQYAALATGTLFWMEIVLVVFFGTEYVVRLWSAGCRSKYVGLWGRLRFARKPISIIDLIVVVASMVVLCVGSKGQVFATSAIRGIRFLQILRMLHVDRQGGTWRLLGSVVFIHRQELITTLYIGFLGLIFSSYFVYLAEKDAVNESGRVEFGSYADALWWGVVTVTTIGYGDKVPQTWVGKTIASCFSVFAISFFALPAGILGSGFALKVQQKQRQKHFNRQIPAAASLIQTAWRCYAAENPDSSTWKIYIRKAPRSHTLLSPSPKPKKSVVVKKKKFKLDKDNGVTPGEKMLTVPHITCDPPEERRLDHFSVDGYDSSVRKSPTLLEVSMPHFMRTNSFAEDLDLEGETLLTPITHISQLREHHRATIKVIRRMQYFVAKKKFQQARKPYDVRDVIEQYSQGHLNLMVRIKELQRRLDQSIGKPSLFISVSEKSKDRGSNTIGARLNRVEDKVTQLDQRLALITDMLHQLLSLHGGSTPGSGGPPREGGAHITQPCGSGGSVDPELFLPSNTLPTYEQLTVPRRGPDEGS
# assay details: KCNQ1 potassium channel potentiators, confirmation, FluxOR thallium flux, CHO cells, duplicates (AID 493007)
# measurement setup: KCNQ1 cell line, FluxOR thallium flux fluorescence, at 10 µM, % of reference activator effect, buffer zero
The source made the active and inactive calls.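 How the source made its calls: active means potentiation averaged over duplicate wells exceeding buffer-only control mean by more than 3 SD; inactive means the rest.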
Outcomes: true for active, false for inactive

>  <compound>
O=C(Nc1ccc(C(=O)O)cc1)/C(=C\c1ccc2c(c1)OCO2)NC(=O)c1ccc(Br)cc1

>  <target or test system>
Potassium voltage-gated channel subfamily KQT member 1 (Homo sapiens) (UniProt P51787)

>  <group>
false

$$$$
>  <compound>
Cc1onc(-c2ccccc2)c1C(=O)NNC(=S)NC(=O)c1ccc(Br)cc1

>  <target or test system>
Potassium voltage-gated channel subfamily KQT member 1 (Homo sapiens) (UniProt P51787)

>  <group>
false

$$$$
>  <compound>
CCN(Cc1cc2cc(OC)ccc2[nH]c1=O)C(=O)c1ccncc1

>  <target or test system>
Potassium voltage-gated channel subfamily KQT member 1 (Homo sapiens) (UniProt P51787)

>  <group>
false

$$$$
>  <compound>
CC(=O)c1c(C)[nH]c(-c2ccccc2)nc1=S

>  <target or test system>
Potassium voltage-gated channel subfamily KQT member 1 (Homo sapiens) (UniProt P51787)

>  <group>
true

$$$$
>  <compound>
O=C(/C=C/c1ccccc1)C1C(=O)c2ccccc2C1=O

>  <target or test system>
Potassium voltage-gated channel subfamily KQT member 1 (Homo sapiens) (UniProt P51787)

>  <group>
true

$$$$
>  <compound>
CC(=O)CSc1ncnc2sc3c(c12)CCC(C)C3 (stereo unspecified)

>  <target or test system>
Potassium voltage-gated channel subfamily KQT member 1 (Homo sapiens) (UniProt P51787)

>  <group>
true

$$$$
>  <compound>
O=C(CNC(=O)c1ccccc1)NCc1ccc(Cl)cc1

>  <target or test system>
Potassium voltage-gated channel subfamily KQT member 1 (Homo sapiens) (UniProt P51787)

>  <group>
false

$$$$
>  <compound>
COc1cccc(NC(=S)NCCN2CCOCC2)c1

>  <target or test system>
Potassium voltage-gated channel subfamily KQT member 1 (Homo sapiens) (UniProt P51787)

>  <group>
true

$$$$
>  <compound>
COc1ccc(S(=O)(=O)Nc2cccc3ccc(O)cc23)cc1

>  <target or test system>
Potassium voltage-gated channel subfamily KQT member 1 (Homo sapiens) (UniProt P51787)

>  <group>
false

$$$$
>  <compound>
O=C(Nc1nc(=O)c2ccccc2s1)c1ccc(Cl)cc1

>  <target or test system>
Potassium voltage-gated channel subfamily KQT member 1 (Homo sapiens) (UniProt P51787)

>  <group>
true

$$$$
>  <compound>
Cc1cc(C)n(CC(=O)N2CCCC(N3CCN(c4ccccc4C)CC3)C2)n1 (stereo unspecified)

>  <target or test system>
Potassium voltage-gated channel subfamily KQT member 1 (Homo sapiens) (UniProt P51787)

>  <group>
true

$$$$
